Molecular target: T1, recombinant human IL-6 (human, UniProt P05231 30-212, limits assumed)
T1 construct: also called rhIL6; human recombinant IL-6
Assay: competition ELISA, rhIL-6 in solution against captured IL-6
reported_metric: IC50 (nM)

binder="mAb 285 (antibody, V domains shown) VH: QVTLKESGPALVKPTQTLTLTCTFSGFSLSTSGMCVSWIRQPPGKALEWLTLIYWDDDKRYSPSLETRLTITKDTSKNQVVLTMTNMDPVDTATYYCARSYDDYLYYALDYWGQGTLVT VL: DVVMTQSPSSVSASVGDRVTITCRASQDIDNFLAWYQQKPGKAPNLLIYKVSSLRSGVPSRFSGSRSGTDFTLTITSLQPEDFATYFCQQTRRFPLTFGPGTKLE" result=2.5
binder="mAb 188 (antibody, V domains shown) VH: QVTLKESGPALVKPTQTLTLTCTFSGFSLTTSGMCVSWIRQPPGKALEWLALIYWDDDKRYNPSLRSRLTITKDTSKNQVVLTMTNMDPVDTATYYCARSYDDYLYYALDYWGQGTLVT VL: DIQMTQSPSTLSASVGDRVTITCRASQSISRWLAWYQQKPGKAPKLLISKASSLEYGVPSRFSGSGSGTEFALTISNVQPEDFATYYCQQSFAVPLTFGGGTKLEIK" result=1.4
binder="mAb 265 (antibody, V domains shown) VH: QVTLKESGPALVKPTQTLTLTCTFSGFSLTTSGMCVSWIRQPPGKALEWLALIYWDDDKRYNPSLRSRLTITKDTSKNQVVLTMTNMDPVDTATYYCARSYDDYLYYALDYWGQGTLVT VL: DIQMTQSPSTLSASVGDRVTITCRASQSMSDYLNWYQQKPGKAPKLLIYSASGLQSGVPSRFSGSGSGTDFTLTIINLQPEDVAAYYCQQSFSFPLTFGPGTKLEIK" result=6.2
binder="mAb 416 (antibody, V domains shown) VH: QVTLKESGPTLVKPTQTLTLTCSFSGFSLSTSGVGVGWVRQPPGKALEWLAFIFWDDDKYYSPSLESRLTITKDTSKNQVVLTMTNMDPVDTATYYCARSYDDYLYYALDYWGQGTLVT VL: DIQMTQSPSSLSAFVGDGVTMTCWASQSINDYLNWYHQRPGEAPELLVFAASNLQIGVPSRFRGSGSETYFTLTINSLQPEDSGTYFCQNGHSFPLTFGGGTKLEI" result=0.6
binder="mAb 1339 (antibody, human IgG1, kappa, V domains shown) VH: QVTLKESGPTLVKPTQTLTLTCSFSGFSLSTSGVGVGWVRQPPGKALEWLAFIWWDDDKYYSPSLESRLTITKDTSKNQVVLTMTNMDPVDTATYYCARSADDYLYYSFDTWGQGTLVTVSS VL: DIQMTQSPSSLSAFVGDGVTMTCWASQSINDYLNWYHQRPGEAPELLVFAASNLQIGVPSRFRGSGSETYFTLTINSLQPEDSGTYFCQNAHSFPLTFGGGTKLEIKR" result=0.026
